assay: Quantitative High-Throughput drug screen in 47 multiple myeloma cell lines against the NCATS MIPE library collection: ARP1_JJKsccF8 cell viability assay (AID 1918928; also: nearly all actives have a fitted effect of over 40% in size;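 as to viability: 100% = DMSO only wells and 0% = medium only wells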); conditions: ARP1 myeloma cells viability, CellTiter-Glo ATP, 48 h; series mostly up to 45.8 µM
Results filed as inconclusive are left out. Calls of active or inactive are those of the source. Calls follow the shape of the dose curve; as a rule, active = well fitted cell-killing curve with a large enough effect; inconclusive = small, poorly fitted or top-dose-only effect, or effect the other way; inactive = no such curve, though single readings can be large or run the other way.
Possible outcomes: label 1 (active), label 0 (inactive)

[
  {
    "Compound": "CN(C)CCc1c[nH]c2ccc(CS(=O)(=O)N3CCCC3)cc12",
    "Label Class": "label 0"
  },
  {
    "Compound": "C1CCC(C(CC2CCCCN2)C2CCCCC2)CC1 (configuration not stated)",
    "Label Class": "label 1"
  },
  {
    "Compound": "CN1CCCC(n2nc(Cc3ccc(Cl)cc3)c3ccccc3c2=O)CC1 (configuration not stated)",
    "Label Class": "label 1"
  },
  {
    "Compound": "CCN(C)C(=O)Oc1cccc([C@H](C)N(C)C)c1",
    "Label Class": "label 0"
  },
  {
    "Compound": "C[C@@H](NCCCc1cccc(C(F)(F)F)c1)c1cccc2ccccc12",
    "Label Class": "label 0"
  },
  {
    "Compound": "COC(=O)Nc1nc2ccc(Sc3ccccc3)cc2[nH]1",
    "Label Class": "label 1"
  },
  {
    "Compound": "Cc1ccc(S(=O)(=O)N[C@@H](Cc2ccccc2)C(=O)CCl)cc1",
    "Label Class": "label 1"
  },
  {
    "Compound": "Cc1nnc(NS(=O)(=O)c2ccc(N)cc2)s1",
    "Label Class": "label 1"
  },
  {
    "Compound": "CC1=NN(c2ccccc2)C(=O)C1",
    "Label Class": "label 0"
  },
  {
    "Compound": "NC(=O)c1ccc2[nH]ccc2c1",
    "Label Class": "label 0"
  },
  {
    "Compound": "N=C(N)c1ccc(OCCCCCOc2ccc(C(=N)N)cc2)cc1",
    "Label Class": "label 1"
  },
  {
    "Compound": "O=C(N[C@H](CO)[C@H](O)c1ccc([N+](=O)[O-])cc1)C(Cl)Cl",
    "Label Class": "label 0"
  }
]

###

assay: qHTS of pediatric cancer cell lines to identify multiple opportunities for drug repurposing: Primary screen for NB-EBc1 cells (AID 1347095); conditions: NB-EBc1 neuroblastoma viability, CellTiter-Glo luminescence, 48 h; series mostly up to 46 µM
Results filed as inconclusive are left out. The source made the active and inactive calls. Calls follow the shape of the dose curve; as a rule, active = well fitted cell-killing curve with a large enough effect; inconclusive = small, poorly fitted or top-dose-only effect; inactive = no such curve, though single readings can be large or run the other way.
Possible outcomes: class 1 = active, class 0 = inactive

[
  {
    "Compound": "CC1=NN(c2ccccc2)C(=O)C1",
    "Label Class": "class 0"
  },
  {
    "Compound": "CC(C)OC(=O)OCOP(=O)(CO[C@H](C)Cn1cnc2c(N)ncnc21)OCOC(=O)OC(C)C",
    "Label Class": "class 0"
  },
  {
    "Compound": "CS(=O)(=O)c1ccc([C@@H](O)[C@@H](CO)NC(=O)C(Cl)Cl)cc1",
    "Label Class": "class 0"
  },
  {
    "Compound": "CNC1CCCN(c2c(F)cc3c(=O)c(C(=O)O)cn(C4CC4)c3c2OC)C1 (centres undefined)",
    "Label Class": "class 0"
  },
  {
    "Compound": "O=S(=O)(O)CCS",
    "Label Class": "class 0"
  },
  {
    "Compound": "CCN(CC)CC#CCOC(=O)C(O)(c1ccccc1)C1CCCCC1 (centres undefined)",
    "Label Class": "class 0"
  },
  {
    "Compound": "NCCCC(O)(P(=O)(O)O)P(=O)(O)O",
    "Label Class": "class 0"
  },
  {
    "Compound": "NNC(=O)c1ccncc1",
    "Label Class": "class 0"
  },
  {
    "Compound": "O=C(O)CCn1c2c(c3ccccc31)C[C@H](NS(=O)(=O)c1ccc(F)cc1)CC2",
    "Label Class": "class 0"
  },
  {
    "Compound": "C[C@@H]1C[C@H]2[C@@H]3CCC4=CC(=O)C=C[C@]4(C)[C@@]3(Cl)[C@@H](O)C[C@]2(C)[C@@]1(OC(=O)c1ccco1)C(=O)CCl",
    "Label Class": "class 1"
  },
  {
    "Compound": "CNNCc1ccc(C(=O)NC(C)C)cc1",
    "Label Class": "class 0"
  },
  {
    "Compound": "O=C(O)CSCC(=O)NC1CCSC1=O (centres undefined)",
    "Label Class": "class 0"
  },
  {
    "Compound": "Clc1ccccc1CN1CCc2sccc2C1",
    "Label Class": "class 0"
  },
  {
    "Compound": "CC1CC2C3CCC4=CC(=O)C=C[C@]4(C)[C@@]3(F)[C@@H](O)C[C@]2(C)[C@@]1(O)C(=O)CO (some centres undefined)",
    "Label Class": "class 0"
  },
  {
    "Compound": "CNS(=O)(=O)Cc1ccc2[nH]cc(CCN(C)C)c2c1",
    "Label Class": "class 0"
  },
  {
    "Compound": "CN1CCCC(n2nc(Cc3ccc(Cl)cc3)c3ccccc3c2=O)CC1 (centres undefined)",
    "Label Class": "class 1"
  },
  {
    "Compound": "CN1CCN(c2c(F)cc3c(=O)c(C(=O)O)cn4c3c2OCN4C)CC1",
    "Label Class": "class 0"
  },
  {
    "Compound": "O=c1cc(O)c(Cl)c[nH]1",
    "Label Class": "class 0"
  },
  {
    "Compound": "C#CCN[C@@H]1CCc2ccccc21",
    "Label Class": "class 0"
  },
  {
    "Compound": "CCOc1cc(N)c(Cl)cc1C(=O)NCC1CN(Cc2ccc(F)cc2)CCO1 (centres undefined)",
    "Label Class": "class 0"
  },
  {
    "Compound": "NC(N)=NC(N)=NCCc1ccccc1",
    "Label Class": "class 0"
  },
  {
    "Compound": "O=P(O)(O)C(O)(Cc1cccnc1)P(=O)(O)O",
    "Label Class": "class 0"
  },
  {
    "Compound": "CCCCS(=N)(=O)CCC(N)C(=O)O (centres undefined)",
    "Label Class": "class 0"
  },
  {
    "Compound": "Cc1ccnc2c1NC(=O)c1cccnc1N2C1CC1",
    "Label Class": "class 0"
  }
]
